Values from ChEMBL document CHEMBL1157864

System: Candida tropicalis
Assay comment: Antimicrobial activity against Candida tropicalis ATCC 1369 after 24 hrs by broth microdilution assay
Format: functional
Setup conditions: ATCC 1369, 24 h
Measured endpoint: MIC (µg/mL)
Enter your answer as a number in µg/mL; do not include the unit.

CC(=O)N1N=C(c2nc(C(C)C)cs2)OC1(C)c1ccc(C)cc1 (stereo not drawn) = 31.2
COc1ccc(-c2nnc(-c3nc(C(C)C)cs3)o2)cc1 = 31.2
COc1ccc(-c2nn3c(-c4nc(C(C)C)cs4)nnc3s2)cc1 = 16

response.value for "CC(C)c1csc(-c2nnc(-c3ccccc3)o2)n1" (field: MIC) = 125

response.value for "CC(C)c1csc(-c2nnc(-c3ccc(O)cc3)o2)n1" (field: MIC) = 125
